The reported measurements were obtained from ChEMBL document CHEMBL2203167.

# methodSummary: Cytotoxicity against human C8166 cells after 3 days by MTT assay
# Type: cell-based
metric: CC50 at 72 h (µM)
Numbers only here, please. The scale is µM.

[[record]]
smi = "COc1ccc(CNC(=O)c2nc(C(C)(C)NC(=O)OCc3ccccc3)nc(O)c2O)cc1"
unit = "µM"
readoutvalue = 164

[[record]]
smi = "CC(C)(NC(=O)OCc1ccccc1)c1nc(O)c(O)c(C(=O)NCc2ccc(C(F)(F)F)cc2)n1"
unit = "µM"
readoutvalue = 58.1


Now consider the entry below.
Could you tell me which CC50 at 72 h is on file for COc1cc(CNC(=O)c2nc(C(C)(C)NC(=O)OCc3ccccc3)nc(O)c2O)cc(OC)c1OC ?
110

---

# methodSummary: Therapeutic index, ratio of CC50 for human C8166 cells to EC50 for HIV1 3B
# Type: cell-based
# runParameters: read-out: Ratio CC50/EC50
metric: selectivity ratio

Example compounds with recorded selectivity ratio:
[[record]]
smi = "Cc1cn([C@H]2C[C@H](N=[N+]=[N-])[C@@H](CO)O2)c(=O)[nH]c1=O"
readoutvalue = 274000

[[record]]
smi = "CC(C)(NC(=O)OCc1ccccc1)c1nc(O)c(O)c(C(=O)N/N=C/c2ccc(F)cc2)n1"
readoutvalue = 13.7


Using the record for COCCNC(=O)Nc1nc(C(C)(C)NC(=O)OCc2ccccc2)nc(O)c1O , report its selectivity ratio.
> 9.13

Can you look up the measured selectivity ratio of CC(C)(NC(=O)OCc1ccccc1)c1nc(O)c(O)c(C(=O)NCCc2cc3ccccc3[nH]2)n1 for me?
4.76

---

# methodSummary: Cytotoxicity against human C8166 cells after 3 days by MTT assay
# Type: cell-based
metric: CC50 at 72 h (µM)
Supply the numeric figure in µM, leaving out any unit text.

Below are worked cases with known answers.
[[record]]
smi = "CC(C)(NC(=O)OCc1ccccc1)c1nc(O)c(O)c(C(=O)NCCc2cc3ccccc3[nH]2)n1"
readoutvalue = 34.1

[[record]]
smi = "COCCCNC(=O)c1nc(C(C)(C)NC(=O)OCc2ccccc2)nc(O)c1O"
readoutvalue = 259

[[record]]
smi = "CC(C)(NC(=O)OCc1ccccc1)c1nc(O)c(O)c(C(=O)NCc2ccccc2)n1"
readoutvalue = 41.4

[[record]]
smi = "CC(C)(NC(=O)OCc1ccccc1)c1nc(O)c(O)c(C(=O)NCCc2ccc(F)cc2)n1"
readoutvalue = 35.4


# next compound below
// CC50 at 72 h lookup, key: COCCNC(=O)c1nc(C(C)(C)NC(=O)OCc2ccccc2)nc(O)c1O
348

---

# methodSummary: Cytotoxicity against human C8166 cells after 3 days by MTT assay
# Type: cell-based
metric: CC50 at 72 h (µM)
Field: numeric (µM). Do not append units.

A selection of reference data follows.
[[record]]
smi = "CC(C)(NC(=O)OCc1ccccc1)c1nc(O)c(O)c(NC(=O)NCc2ccc(F)cc2)n1"
metric = "CC50 at 72 h"
readoutvalue = 81.1

[[record]]
smi = "CC(C)(NC(=O)OCc1ccccc1)c1nc(O)c(O)c(C(=O)NCc2ccccc2Cl)n1"
metric = "CC50 at 72 h"
readoutvalue = 53.9

[[record]]
smi = "CC(C)(NC(=O)OCc1ccccc1)c1nc(O)c(O)c(C(=O)NCC2CC2)n1"
metric = "CC50 at 72 h"
readoutvalue = 204

[[record]]
smi = "CC(C)(NC(=O)OCc1ccccc1)c1nc(O)c(O)c(C(=O)N/N=C/c2ccc(F)cc2)n1"
metric = "CC50 at 72 h"
readoutvalue = 378

[[record]]
smi = "CC(C)(NC(=O)OCc1ccccc1)c1nc(O)c(O)c(C(=O)NCCc2ccccc2)n1"
metric = "CC50 at 72 h"
readoutvalue = 38.5


Next:
Report CC50 at 72 h for Cc1ccc(CNC(=O)c2nc(C(C)(C)NC(=O)OCc3ccccc3)nc(O)c2O)cc1 please.
234
